system: HLA-DR DRB1*0301 (DR3) (Homo sapiens, UniProt P01903+P01911, A100K/A102G/A103R/A169T/F55Y/I96L/K41T/L162R/M171V/P40S/Q125H/Q178H/Q39Y/R42S/S66N/T106N/T262R/W38E/Y61H)
Sequence (P01903 26-254 limits assumed, other chains not shown): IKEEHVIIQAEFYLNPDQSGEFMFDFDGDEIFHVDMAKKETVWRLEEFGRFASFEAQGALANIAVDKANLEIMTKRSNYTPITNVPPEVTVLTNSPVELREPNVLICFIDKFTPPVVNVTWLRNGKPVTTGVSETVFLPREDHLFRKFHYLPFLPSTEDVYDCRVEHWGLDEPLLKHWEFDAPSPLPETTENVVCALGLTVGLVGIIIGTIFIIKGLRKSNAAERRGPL
measurement.protocol: biochemical
Assay type: binding
setup.conditions: read-out: DRB1 *0301
pIC50: −log10 of the molar value.
observable: pIC50

>>> data_value("YLVTGERGFFYTKYT")
5.32
>>> data_value("ALIYNYGLLYCFRKD")
5.01
>>> data_value("YDFVFADLRIVYRNG")
7.89
>>> data_value("GYKVLVLNPSV")
4.14
>>> data_value("SHDLMLLRLSEPAK")
5.62
>>> data_value("FAGIRRDGLLLRLVD")
8.44
>>> data_value("VASLLTTAEVVVTE")
3.87
>>> data_value("RGGMVFELANSIYLP")
4.43
>>> data_value("DRTLMSAMTNLAALE")
4.19
>>> data_value("FPTIPLSRLFDNAM")
4.33
>>> data_value("FYNQHLTGSHLVEAL")
4.17
>>> data_value("MLDLQPETTDLYCYE")
6.14
>>> data_value("GGVLVNEILNHMK")
6.15
>>> data_value("SFLQNPQTSLCCFRK")
5.74
>>> data_value("TCCYTCGTTVRLCIN")
4.70
>>> data_value("LTIVYRDDTPHGVCT")
6.73
